Could you please report measured self-cleavage for the items listed next?
B1: CPEB3 Ribozyme (parent)
chain: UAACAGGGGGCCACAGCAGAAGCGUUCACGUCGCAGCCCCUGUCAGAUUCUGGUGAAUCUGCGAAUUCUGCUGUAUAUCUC

Variants of: B1
Assay: self-cleavage, relative activity (ratio to wild type); higher = more cleavage; in vitro, sequencing
# output: bare number, no unit

Query string: // Input: A45G C71G . Output its self-cleavage only.
Result string: 0.3

Query string: Retrieve self-cleavage measured for G22A A28C and print it.
Result string: 0.21

Query string: Give the reported value of self-cleavage for this record: A28G G42C
Result string: 0.18

Query string: Answer with reported self-cleavage of G16C U48G
Result string: 0.18

Query string: For G52U U76G , write its self-cleavage.
Result string: 1.19

Query string: Quick one: give measured self-cleavage for G52U A65U
Result string: 0.28

Query string: Input A45U C71U , output reported self-cleavage.
Result string: 0.13

Query string: Please report self-cleavage for the following variant: U48A U74A
Result string: 0.98

Query string: Let me know recorded self-cleavage for G55C A64U , thanks.
Result string: 0.23

Query string: Give me measured self-cleavage, please, for this variant: A56G A65G
Result string: 0.32

Query string: Return reported self-cleavage. Input variant: G7C A20U
Result string: 0.22

Query string: For A13G G22A , write its self-cleavage.
Result string: 0.19

Query string: Given G9U U60C , respond with its self-cleavage.
Result string: 0.06

Query string: Identify self-cleavage associated with the variant G8U A45G
Result string: 0.14

Query string: Specify self-cleavage for G19C A20U and stop.
Result string: 0.4

Query string: Note self-cleavage for the variant shown: C17U U31C
Result string: 0.42

Query string: Assign self-cleavage to the following record: G6U A28G
Result string: 0.38

Query string: State its self-cleavage: G10A G42U
Result string: 0.38

Query string: Determine from records and report self-cleavage for C34U U76C
Result string: 0.35

Query string: Assign self-cleavage to the following record: G52C U67A
Result string: 0.88

Query string: Dear colleague, please send me the reported self-cleavage for A28U U69C when you can.
Result string: 0.33

Query string: State its self-cleavage: U1A A2U
Result string: 1.09

Query string: Look up self-cleavage of A13G C50G and report it.
Result string: 0.81

Query string: Annotate the variant C44A U54C with its measured self-cleavage.
Result string: 0.36

Query string: Name the recorded self-cleavage of the variant listed here: G9C A15G
Result string: 0.39

Query string: Find the measured self-cleavage of G22A A35G and report it.
Result string: 0.68

Query string: For U41C C50A , write its self-cleavage.
Result string: 0.94

Query string: Look up and state reported self-cleavage for A35G U54A
Result string: 1.28

Query string: Determine from records and report self-cleavage for G30U
Result string: 0.25

Query string: Let me know recorded self-cleavage for A5G U26G , thanks.
Result string: 0.55

Query string: Return reported self-cleavage. Input variant: G10A C40A
Result string: 0.19

Query string: Please look at this variant and report its self-cleavage: A45G A77C
Result string: 0.48

Query string: Give the value of self-cleavage reported for the following: U25C U76C
Result string: 0.3

Query string: Tell me its self-cleavage given A3G G52U as the entry.
Result string: 1.14

Query string: Name the recorded self-cleavage of the item A2U A65G in your answer.
Result string: 0.26

Query string: Fill in reported self-cleavage for this entry: G61A U67A
Result string: 0.43

Query string: Could you please provide reported self-cleavage for G7A U51G ? Thanks!
Result string: 0.1

Query string: Please indicate self-cleavage recorded for G46U U76C
Result string: 0.38

Query string: Query self-cleavage for G30C C40U
Result string: 0.23

Query string: Consider the variant U60A and give its recorded self-cleavage.
Result string: 0.57

Query string: Using the record for A5C A47G , state its measured self-cleavage.
Result string: 0.78
